Reported IC50 values are given for each entry in this list.
target: murine MAdCAM-1 (MAdCAM-1/mCk fusion protein); α4β7-bearing HUT 78 cells (Homo sapiens, UniProt P13612+P26010); construct: host or cells: HUT 78 cells (endogenous α4β7); The MAdCAM-1/mCk partner was made in house in baculovirus-infected Sf9 insect cells, used as neat supernatant and captured by rat anti-mCk antibody; assay: Adhesion of HUT 78 cells to MAdCAM-1/mCk fusion protein bound via capture antibody; format: cell-based; conditions: HUT 78 cell adhesion to MAdCAM-1/mCk; average of two determinations; read-out: IC50
Peptide text beside a SMILES is read from it. * marks the point of attachment. Cyclopentanecarbonyl = O=C(C1CCCC1)*
// note: answer is a bare numeric in µM

Entry CC(C)C[C@H](NC(=O)[C@H](CO)NC(=O)[C@@H](NC(=O)[C@H](CC(=O)O)NC(=O)[C@H](CC(C)C)NC(=O)C(c1ccccc1)(c1ccccc1)c1ccccc1)[C@@H](C)O)C(N)=O , IC50 reported as 0.3

Entry CC(C)Cc1ccc(C(C)C(=O)N[C@@H](CC(C)C)C(=O)N[C@@H](CC(=O)O)C(=O)N[C@H](C(=O)N[C@@H](CO)C(=O)N[C@@H](CC(C)C)C(N)=O)[C@@H](C)O)cc1 (stereo partly shown) , IC50 reported as 1140

Entry CCCCCCCc1ccc(C(=O)N[C@@H](CC(C)C)C(=O)N[C@@H](CC(=O)O)C(=O)N[C@H](C(=O)N[C@@H](CO)C(=O)N[C@@H](CC(C)C)C(N)=O)[C@@H](C)O)cc1 , IC50 reported as 401

Entry CC(C)C[C@H](NC(=O)[C@H](CO)NC(=O)[C@@H](NC(=O)[C@H](CC(=O)O)NC(=O)C1CCCC1)[C@@H](C)O)C(N)=O [Example 50, Cpc-Asp-Thr-Ser-Leu] (Cyclopentanecarbonyl-DTSL-NH2) , IC50 reported as 8.9

---

Biological target: murine MAdCAM-1 (MAdCAM-1/mCk fusion protein); α4β7-bearing HUT 78 cells (Homo sapiens, UniProt P13612+P26010)
Construct: host or cells: HUT 78 cells (endogenous α4β7); The MAdCAM-1/mCk partner was made in house in baculovirus-infected Sf9 insect cells, used as neat supernatant and captured by rat anti-mCk antibody
Test: Adhesion of HUT 78 cells to MAdCAM-1/mCk fusion protein bound via capture antibody
Format: cell-based
Settings: 500 μM compound; HUT 78 cells, Mn2+ activated
Experimental: The compounds of the present invention were evaluated for their biological properties. A soluble fusion protein comprising murine MAdCAM-1 was produced in a baculovirus expression system and used in the adhesion assay. […] Human T-cell lymphoma cells (HUT 78 cells) activated with Mn^+2 were used for the adhesion assay in a 96-well format. […] The adhesion of HUT 78 cells to MAdCAM-1/mCk fusion protein bound to wells via rat anti-mCk capture antibody was assessed in the presence or absence of each compound. […]
Ends that are not written are not given here.
Lab note: compare % Adhesion Inhibition 500 μM against 70%. Equal or greater, write Yes. Smaller, write No.

NH2-Leu-Asp-Thr-Ser-Leu (H-LDTSL; not fully specified (C-terminus); printed as NH2-Leu-Asp-Thr-Ser-Leu) [Example 54]: No
Ac-Arg-Gly-Leu-Asp-Thr-Ser-Leu-Gly (Ac-RGLDTSLG; not fully specified (C-terminus); printed as Ac-Arg-Gly-Leu-Asp-Thr-Ser-Leu-Gly) [Example 59]: Yes
Ac-Arg-Val-His-Trp-Arg-Gly-Leu-Asp-Thr-Ser-Leu-Gly-Ser-Val-Gln (Ac-RVHWRGLDTSLGSVQ; not fully specified (C-terminus); printed as Ac-Arg-Val-His-Trp-Arg-Gly-Leu-Asp-Thr-Ser-Leu-Gly-Ser-Val-Gln) [Example 62]: Yes
Ac-Lle-Asp-Thr-Ser-Leu [Example 46]: No

Pending substance:
Challenge: Decide: is the reported value of % Adhesion Inhibition 500 μM for NH2-Trp-Arg-Gly-Leu-Asp-Thr-Ser-Leu-Gly-Ser (H-WRGLDTSLGS; not fully specified (C-terminus); printed as NH2-Trp-Arg-Gly-Leu-Asp-Thr-Ser-Leu-Gly-Ser) [Example 55] equal to or greater than 70%?
Response given: Yes

All values here come from patent US20020103111A1.
